tested on: N. gonorrhoeae; test: Bacterial inhibition assay (growth, MTS readout); format: cell-based; conditions: Neisseria gonorrhoeae; CAMHB-3% LHB medium, 35° C., 5% CO2, 24 hours
molecules and their reported log10 of MIC
Scale type: logarithmic (base 10). Underlying MIC unit: µM.

# input.smiles, recorded.result
rows = [
    ("CC(=NNC(=N)N)c1cccc(NC(=O)[C@@H]2CCCN2C(=O)c2cccc(C(C)=NNC(=N)N)c2)c1", 1.90),
    ("CC(=NNC(=N)N)c1cccc(NC(=O)[C@@H]2Cc3ccccc3CN2C(=O)c2cccc(C(C)=NNC(=N)N)c2)c1", 2.00),
]

Which log10 of MIC value is on record for CC(=NNC(=N)N)c1cccc(NC(=O)Nc2cccc(C(C)=NNC(=N)N)c2)c1 ?
2.00

Which log10 of MIC value is on record for CC(=NNC(=N)N)c1ccc(C(=O)Nc2cccc(C(C)=NNC(=N)N)c2)cc1 ?
1.00

Reported log10 of MIC for CC(=NNC(=N)N)c1ccc(NC(=O)Nc2ccc(C(C)=NNC(=N)N)cc2)cc1 : what is it?
1.48

So what does the record say about log10 of MIC for CC(=NNC(=N)N)c1ccc(NC(=O)c2ccc(C(C)=NNC(=N)N)cc2)cc1 ?
0.48

###

target: N. gonorrhea RNase P (M1 RNA + C5 protein) (Neisseria gonorrhoeae, UniProt Q5F4W3); test: Time resolved fluorescence (TRF) RNase P inhibition assay; type: biochemical; details: N. gonorrhoeae TRF IC50(μM) (Example 15), 30 min enzyme reaction, ptGLN substrate
Sequence (Q5F4W3 whole entry): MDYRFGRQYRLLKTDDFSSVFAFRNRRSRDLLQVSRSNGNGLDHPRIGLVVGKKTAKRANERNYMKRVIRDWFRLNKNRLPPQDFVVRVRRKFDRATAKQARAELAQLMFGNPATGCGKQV
endpoint: IC50
Number first, unit second.

Would you mind telling me what IC50 value was observed for CC(=NNC(=N)N)c1cccc(NC(=O)c2cccc(-c3ccccc3)c2)c1 ?
16 µM

###

assay: Cellular toxicity assay (MTS) on PBMC; format: cell-based, human; details: human, peripheral blood mononuclear cells (PBMC); 24 hours incubation, MTS reagent; read-out: PBMC's TC50
Listed below: CC50 at 24 h values for each entry.

# input.smiles, CC50 at 24 h
rows = [
    ("CC(=NNC(=N)N)c1cccc(NC(=O)[C@@H]2CCCN2C(=O)c2cccc(C(C)=NNC(=N)N)c2)c1", "> 100 µM"),
    ("CC(=NNC(=N)N)c1ccc(NC(=O)c2ccc(C(C)=NNC(=N)N)cc2)cc1", "> 100 µM"),
    ("CC(=NNC(=N)N)c1ccc(C(=O)Nc2cccc(C(C)=NNC(=N)N)c2)cc1", "> 100 µM"),
    ("CC(=NNC(=N)N)c1cccc(NC(=O)[C@@H]2Cc3ccccc3CN2C(=O)c2cccc(C(C)=NNC(=N)N)c2)c1", "> 100 µM"),
]

Value lookup for CC50 at 24 h; key = CC(=NNC(=N)N)c1ccc(NC(=O)Nc2ccc(C(C)=NNC(=N)N)cc2)cc1
> 100 µM

Please look up its CC50 at 24 h: CC(=NNC(=N)N)c1cccc(NC(=O)Nc2cccc(C(C)=NNC(=N)N)c2)c1
> 100 µM

###

molecular target: N. gonorrhoeae RNase P holoenzyme (Neisseria gonorrhoeae, UniProt Q5F4W3); test: biochemical; conditions: 32P-labelled pGln substrate, room temperature; read-out: N. gonorrhoeae Gel assay IC50(μM) (Example 16)
Sequence (Q5F4W3 whole entry): as above
endpoint: log10 of IC50 (log10 of the value in µM)
Quick note: numbers are log10 of IC50, with µM as the unit.

See these solved cases before continuing.
# input.smiles, log10 of IC50
records = [
    ("CC(=NNC(=N)N)c1cccc(NC(=O)[C@@H]2Cc3ccccc3CN2C(=O)c2cccc(C(C)=NNC(=N)N)c2)c1", 0.78),
    ("CC(=NNC(=N)N)c1cccc(NC(=O)[C@@H]2CCCN2C(=O)c2cccc(C(C)=NNC(=N)N)c2)c1", 2.00),
    ("CC(=NNC(=N)N)c1cccc(NC(=O)c2cccc(-c3ccccc3)c2)c1", 1.00),
    ("CC(=NNC(=N)N)c1cccc(NC(=O)Nc2cccc(C(C)=NNC(=N)N)c2)c1", 1.48),
    ("CC(=NNC(=N)N)c1cccc(NC(=O)[C@H](Cc2ccc(-c3ccccc3)cc2)NC(=O)c2cccc(I)c2)c1", 0.78),
]

Provide value of log10 of IC50 for this record tested with N. gonorrhoeae RNase P holoenzyme (Neisseria gonorrhoeae, UniProt Q5F4W3): CC(=NNC(=N)N)c1ccc(C(=O)Nc2cccc(C(C)=NNC(=N)N)c2)cc1
0.30

Query log10 of IC50 on N. gonorrhoeae RNase P holoenzyme (Neisseria gonorrhoeae, UniProt Q5F4W3) for CC(=NNC(=N)N)c1ccc(NC(=O)Nc2ccc(C(C)=NNC(=N)N)cc2)cc1
0.85
